Assay: Stability in simulated intestinal fluid
Assay type: in vitro ADME
Conditions: 2 μM peptidomimetic, simulated intestinal fluid pH 7.5, 37° C.; read-out: half-life (t1/2) when incubated with simulated intestinal fluid
Non-standard residues stand in square brackets, D forms with d. Residues, ends and D or L forms follow the SMILES beside them. ξ: configuration not given here. ξBip(2'-Et-4'-OMe) = CCc1cc(OC)ccc1-c1ccc(CC(N)C(=O)O)cc1; ξNva(5-(3-Cl-Ph)) = NC(CCCc1cccc(Cl)c1)C(=O)O; Ac5c = NC1(C(=O)O)CCCC1
measurement_type: half-life at 2 μM

Here is how some compounds turned out for half-life at 2 μM.
compound	half-life at 2 μM
CCc1cc(OC)ccc1-c1ccc(CC(CNC(CCCc2ccccc2)C(N)=O)NC[C@H](CC(=O)O)NC(=O)[C@H](CO)NC(=O)[C@@H](NC(=O)C(C)(Cc2ccccc2F)NC(=O)[C@@H](NC(=O)CNC(=O)[C@H](CCC(N)=O)NC(=O)C(C)(C)NC(=O)[C@H](Cc2c[nH]cn2)NC(=O)OC)[C@@H](C)O)[C@@H](C)O)cc1 (single isomer, unassigned) [compound 194]	> 24 h
CCc1cc(OC)ccc1-c1ccc(CC(CNC(CCCc2ccccc2F)C(N)=O)NC[C@H](CC(=O)O)NC(=O)[C@H](CO)NC(=O)[C@@H](NC(=O)C(C)(Cc2ccccc2F)NC(=O)[C@@H](NC(=O)CNC(=O)[C@H](CCC(N)=O)NC(=O)C(C)(C)NC(=O)[C@@H](N)Cc2c[nH]cn2)[C@H](C)O)[C@H](C)O)cc1 (single isomer, unassigned) [compound 203]	> 24 h

*Q* Hello, please tell me recorded half-life at 2 μM for this one: CCc1cc(OC)ccc1-c1ccc(CC(NC(=O)[C@H](CC(=O)O)NC(=O)[C@H](CO)NC(=O)[C@@H](NC(=O)[C@H](Cc2ccccc2)NC(=O)[C@@H](NC(=O)CNC(=O)[C@H](CCC(N)=O)NC(=O)C2(NC(=O)[C@@H](N)Cc3c[nH]cn3)CCCC2)[C@@H](C)O)[C@@H](C)O)C(=O)NC(CCCc2cccc(Cl)c2)C(N)=O)cc1 (stereo partly drawn) [compound 27] (H-H[Ac5c]QGTFTSD[ξBip(2'-Et-4'-OMe)][ξNva(5-(3-Cl-Ph))]-NH2)
*A* > 24 h
